Tested on: PC-3
Protocol description: Cytotoxicity against human PC3 cells by MTT assay
Assay type: functional, cell-based
pIC50: −log10 of the molar value.
Endpoint: pIC50

[[record]]
smiles_data = "O=C1C(Nc2cccc(F)c2)=C(Cl)C(=O)c2[nH]ncc21"
endpoint = "pIC50"
endpoint_result = 5.20

[[record]]
smiles_data = "O=C1C(Nc2ccc(C(F)(F)F)cc2)=C(Cl)C(=O)c2[nH]ncc21"
endpoint = "pIC50"
endpoint_result = 4.86


###

Experimental system: RAC-alpha serine/threonine-protein kinase (Homo sapiens, UniProt P31749)
Sequence (P31749 whole entry): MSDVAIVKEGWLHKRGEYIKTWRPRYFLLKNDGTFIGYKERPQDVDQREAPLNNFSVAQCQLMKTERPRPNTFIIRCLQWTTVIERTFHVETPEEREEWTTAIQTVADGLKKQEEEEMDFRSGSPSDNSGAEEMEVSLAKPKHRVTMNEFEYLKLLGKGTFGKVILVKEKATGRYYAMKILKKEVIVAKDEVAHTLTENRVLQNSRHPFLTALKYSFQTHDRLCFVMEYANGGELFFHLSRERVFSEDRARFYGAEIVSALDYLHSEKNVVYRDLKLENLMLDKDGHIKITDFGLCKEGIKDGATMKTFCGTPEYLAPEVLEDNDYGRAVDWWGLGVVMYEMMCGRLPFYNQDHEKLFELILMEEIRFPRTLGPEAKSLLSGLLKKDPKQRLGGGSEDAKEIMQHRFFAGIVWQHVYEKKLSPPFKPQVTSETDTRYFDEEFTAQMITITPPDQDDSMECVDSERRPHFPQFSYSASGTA
Protocol description: Inhibition of Akt1 activity assessed as decrease in GSK3 phosphorylation
Assay type: functional
Endpoint: IC50 (µM)

[[record]]
smiles_data = "O=C1C(Nc2ccc(C(F)(F)F)cc2)=C(Cl)C(=O)c2[nH]ncc21"
measurement_qualifier = "="
endpoint_result = 12.4

[[record]]
smiles_data = "O=C1C(Nc2ccc(F)cc2)=C(Cl)C(=O)c2[nH]ncc21"
measurement_qualifier = ">"
endpoint_result = 50

[[record]]
smiles_data = "O=C1C(Nc2ccccc2F)=C(Cl)C(=O)c2[nH]ncc21"
measurement_qualifier = "="
endpoint_result = 15.8

[[record]]
smiles_data = "O=C1C(Nc2ccc(F)cc2F)=C(Cl)C(=O)c2[nH]ncc21"
measurement_qualifier = "="
endpoint_result = 16

[[record]]
smiles_data = "Nc1ccc(N)c2[nH]ncc12"
measurement_qualifier = ">"
endpoint_result = 50

[[record]]
smiles_data = "CCOc1ccc(NC2=C(Cl)C(=O)c3[nH]ncc3C2=O)cc1"
measurement_qualifier = "="
endpoint_result = 4.9

[[record]]
smiles_data = "Cc1cc(C)cc(SC2=C(Cl)C(=O)c3[nH]ncc3C2=O)c1"
measurement_qualifier = ">"
endpoint_result = 50

[[record]]
smiles_data = "O=C1C(Nc2cccc(Br)c2)=C(Cl)C(=O)c2[nH]ncc21"
measurement_qualifier = "="
endpoint_result = 13.9

[[record]]
smiles_data = "O=C1C(Nc2cc(F)cc(F)c2)=C(Cl)C(=O)c2[nH]ncc21"
measurement_qualifier = ">"
endpoint_result = 50

[[record]]
smiles_data = "O=C1C(Sc2ccc(Cl)c(Cl)c2)=C(Cl)C(=O)c2[nH]ncc21"
measurement_qualifier = "="
endpoint_result = 12.3

[[record]]
smiles_data = "O=C1C(Nc2cccc(F)c2)=C(Cl)C(=O)c2[nH]ncc21"
measurement_qualifier = "="
endpoint_result = 11.8

